Data provenance: patent US6403764

ASSAY SYSTEM: T1, recombinant human IGFBP-3 (human, UniProt P17936 28-291)
T1 construct: mature; Secreted recombinant protein
T1 sequence (P17936 28-291): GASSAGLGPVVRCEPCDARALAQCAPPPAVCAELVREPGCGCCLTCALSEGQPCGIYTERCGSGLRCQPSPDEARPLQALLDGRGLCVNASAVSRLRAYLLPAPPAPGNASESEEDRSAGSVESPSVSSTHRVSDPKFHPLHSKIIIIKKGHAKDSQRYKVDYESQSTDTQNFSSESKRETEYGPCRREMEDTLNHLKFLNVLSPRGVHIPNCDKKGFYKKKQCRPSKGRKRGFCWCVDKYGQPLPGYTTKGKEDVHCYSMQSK
PROTOCOL NOTES: competitive phage ELISA
IC50 strictly less than 1 nM = MET. Otherwise NOT MET.

Hi there! Is IC50 for IGF-I Y24A displayed on phage (ligand, On phage; G1S-A70V template; not shown: Display carrier: M13 gene III protein fragment (residues 249-406) and the junction to it) SPETLCGAELVDALQFVCGDRGFAFNKPTGYGSSSRRAPQTGIVDECCFRSCDLRRLEMYCAPLKPAKSV below 1 nM, do you know?
NOT MET

Answer whether the binder IGF-I R55A displayed on phage (ligand, On phage; G1S-A70V template; not shown: Display partner: M13 gene III protein fragment (residues 249-406, mature count) and the junction to it) SPETLCGAELVDALQFVCGDRGFYFNKPTGYGSSSRRAPQTGIVDECCFRSCDLARLEMYCAPLKPAKSV has IC50 strictly less than 1 nM
MET

Identify whether the binder IGF-I D53A displayed on phage (ligand, On phage; G1S-A70V template; not shown: Display partner: M13 gene III protein fragment (residues 249-406, mature count) and the junction to it) SPETLCGAELVDALQFVCGDRGFYFNKPTGYGSSSRRAPQTGIVDECCFRSCALRRLEMYCAPLKPAKSV records IC50 below 1 nM.
NOT MET

Hello, is IC50 of the following binder strictly smaller than 1 nM? IGF-I Q15A displayed on phage (ligand, On phage; G1S-A70V template; not shown: M13 gene III fragment (residues 249-406), the display carrier, and its junction) SPETLCGAELVDALAFVCGDRGFYFNKPTGYGSSSRRAPQTGIVDECCFRSCDLRRLEMYCAPLKPAKSV
NOT MET

Determine whether this binder shows IC50 lower than 1 nM (ties excluded): IGF-I M59A displayed on phage (ligand, On phage; G1S-A70V template; not shown: M13 gene III protein fragment (residues 249-406), the phage display carrier, and its junction to IGF-I) SPETLCGAELVDALQFVCGDRGFYFNKPTGYGSSSRRAPQTGIVDECCFRSCDLRRLEAYCAPLKPAKSV
MET
